- experimental-protocol: HepG2 cytotoxicity, primary screen, cytotoxicity control for P. falciparum antimalarial project, cell-based, ATP luminescence (AID 2303);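 further: 0% = DMSO wells and 100% = digitonin-killed cells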
- condition-parameters: HepG2 viability, 24-48 h, at 10 µM, hits give high values
attribute-measured: inhibition (%)

>>> value_observed("Cc1ccccc1C1CCN(C2CCC(NC(=O)/C=C/c3ccc(OC(F)(F)F)cc3)CC2)CC1 (centres undefined)")
96
>>> value_observed("CCN(CC)S(=O)(=O)c1ccc(CCOCCCCCNCC(O)c2cc(Cl)c(N)c(Cl)c2)s1 (centres undefined)")
35
>>> value_observed("COC(=O)c1ccc2c(-c3nc4ccc(OC)cc4[nH]3)c[nH]c2c1")
0
>>> value_observed("CS(=O)(=O)CCN(CCS(C)(=O)=O)Cc1ccc(-c2ccc3ncnc(Nc4ccc(OCc5cccc(F)c5)c(Cl)c4)c3c2)o1")
-2
>>> value_observed("Cc1noc(C)c1CN1Cc2ccccc2OC2(CCN(Cc3c[nH]c4cnccc34)CC2)C1")
19
>>> value_observed("Cc1ccc(-c2cc(C(=O)Nc3ccc(S(=O)(=O)N4CC(C)OC(C)C4)cc3)[nH]n2)c(O)c1 (centres undefined)")
16
>>> value_observed("CC(C)(C)c1nn(-c2ccccc2)c2[nH]c(=O)c(CNCCc3ccccc3)cc12")
-7
>>> value_observed("CC(C)(C)c1ccc(CNC(=O)c2ccc(-c3nc4ccc(Cl)cc4[nH]3)cc2)cc1")
14
>>> value_observed("COCCn1c(-c2cccc(Cl)c2)nn(-c2ccc([N+](=O)[O-])cc2C#N)c1=S")
7
>>> value_observed("O=C(Nc1ccc(F)cc1)NC1CCN(c2ccnc3cc(Cl)ccc23)C1 (centres undefined)")
17
>>> value_observed("COc1cccc(OC)c1OCCCOc1c(C)nc(N)nc1N")
31
>>> value_observed("Cc1cc(C)c(NC(=O)N[C@H]2CCN(CCCCCNC(=O)/C=C/c3ccc(Cl)c(Cl)c3)C2)c(C)c1")
12
>>> value_observed("O=C(NCc1ccc(C(=O)NC2CCCCCC2)cc1)c1ccc(O)c(-c2ccc(Cl)c(Cl)c2)c1")
-1
>>> value_observed("Cc1ccc(-c2cnc(N)c3cc(-c4ccnc(N)n4)ccc23)cc1")
41
>>> value_observed("Cc1cccc2[nH]c(-c3cccc(-c4ccc(NC(=O)N[C@@H]5C[C@H]5c5ccccc5)cc4)c3)nc12")
25
>>> value_observed("CCNc1cc(C(=O)N[C@@H](Cc2ccccc2)[C@H](O)CN[C@@H]2CCc3ccccc32)cc(N2CCCCS2(=O)=O)c1")
-7
>>> value_observed("COc1ccccc1C(C)NCC(=O)Nc1cccc(C(=O)Nc2cccc(C(F)(F)F)c2)c1 (centres undefined)")
34
>>> value_observed("O=C(NCc1ccc(C(=O)NCc2cccc3ccccc23)cc1)c1ccc(O)c(-c2ccc(Cl)c(Cl)c2)c1")
-10
>>> value_observed("O=C(CSc1nccn1C1CCCCC1)Nc1cc(C(F)(F)F)ccc1Cl")
2

Values compiled from PubChem BioAssay.
